src = ChEMBL document CHEMBL5325478

Tested on: Jurkat
Experiment: Cytotoxicity against human Jurkat cells assessed as reduction in cell viability at 100 uM incubated for 3 days by MTT assay
Format: functional, cell-based
Settings: time 3.0 day
Active and inactive are the calls of the source. The calls are words filed in the database; no cut-off is given here.
Can you answer with just one of these options? active, inactive

Please review the entries below; each comes with its answer.
CC1(C)CC[C@]2(C(=O)O[C@@H]3O[C@H](CO[C@@H]4O[C@H](CO)[C@@H](O)[C@H](O)[C@H]4O)[C@@H](O)[C@H](O)[C@H]3O)CC[C@]3(C)C(=CC[C@@H]4[C@@]5(C)CC[C@H](O[C@@H]6OC[C@H](O)[C@H](O)[C@H]6O)[C@@](C)(CO)[C@@H]5CC[C@]43C)[C@@H]2C1: inactive
C[C@@H]1O[C@@H](O[C@H]2[C@H](O[C@H]3CC[C@@]4(C)[C@@H](CC[C@]5(C)[C@@H]4CC=C4[C@@H]6CC(C)(C)CC[C@]6(C(=O)O[C@@H]6O[C@H](CO[C@@H]7O[C@H](CO)[C@@H](O[C@@H]8O[C@@H](C)[C@H](O)[C@@H](O)[C@H]8O)[C@H](O)[C@H]7O)[C@@H](O)[C@H](O)[C@H]6O)CC[C@]45C)[C@]3(C)CO)OC[C@H](O)[C@@H]2O)[C@H](O)[C@H](O)[C@H]1O: inactive

For the next question, use this compound.
Lookup: Per the records of this test, what outcome belongs to CC1(C)CC[C@]2(C(=O)O)CC[C@]3(C)C(=CC[C@@H]4[C@@]5(C)CC[C@H](O[C@@H]6OC[C@H](O)[C@H](O)[C@H]6O[C@@H]6OC[C@@H](O)[C@H](O)[C@H]6O)[C@@](C)(CO)[C@@H]5CC[C@]43C)[C@@H]2C1 ?
Found: active

###

Test system: Jurkat
Assay: Cytotoxicity against human Jurkat cells assessed as reduction in cell viability at 100 uM incubated for 3 days by MTT assay
Type: functional, cell-based
Details: time 3.0 day
Active and inactive are the calls of the source. The calls are words filed in the database; no cut-off is given here.
Can you answer with just one of these options? active, inactive

Please review the entries below; each comes with its answer.
CC1(C)CC[C@]2(C(=O)O)CC[C@]3(C)C(=CC[C@@H]4[C@@]5(C)CC[C@H](O[C@@H]6OC[C@H](O)[C@H](O)[C@H]6O)[C@@](C)(CO)[C@@H]5CC[C@]43C)[C@@H]2C1: active
CC1(C)CC[C@]2(C(=O)O)CC[C@]3(C)C(=CC[C@@H]4[C@@]5(C)CC[C@H](O[C@@H]6OC[C@H](O)[C@H](O)[C@H]6O[C@@H]6O[C@H](CO)[C@@H](O)[C@H](O)[C@H]6O)[C@@](C)(CO)[C@@H]5CC[C@]43C)[C@@H]2C1: active
CC1(C)CC[C@]2(C(=O)O[C@@H]3O[C@H](CO[C@@H]4O[C@H](CO)[C@@H](O)[C@H](O)[C@H]4O)[C@@H](O)[C@H](O)[C@H]3O)CC[C@]3(C)C(=CC[C@@H]4[C@@]5(C)CC[C@H](O[C@@H]6OC[C@H](O)[C@H](O)[C@H]6O[C@@H]6OC[C@@H](O)[C@H](O)[C@H]6O)[C@@](C)(CO)[C@@H]5CC[C@]43C)[C@@H]2C1: inactive

Lookup: Per the records of this test, what outcome belongs to C[C@@H]1O[C@@H](O[C@H]2[C@H](O)[C@@H](O)[C@H](OC[C@H]3O[C@@H](OC(=O)[C@]45CCC(C)(C)C[C@H]4C4=CC[C@@H]6[C@@]7(C)CC[C@H](O[C@@H]8OC[C@H](O[C@@H]9O[C@@H](C)[C@H](O)[C@@H](O)[C@H]9O)[C@H](O)[C@H]8O[C@@H]8O[C@H](CO)[C@@H](O)[C@H](O)[C@H]8O)[C@@](C)(CO)[C@@H]7CC[C@@]6(C)[C@]4(C)CC5)[C@H](O)[C@@H](O)[C@@H]3O)O[C@@H]2CO)[C@H](O)[C@H](O)[C@H]1O ?
Found: inactive
